This listing pairs binders with measured koff.
Target: T1, human CD33 antigen (human, UniProt P20138 18-259, limits assumed)
T1 construct: whole entry named; also called Siglec-3
T1 sequence (P20138 18-259 limits assumed): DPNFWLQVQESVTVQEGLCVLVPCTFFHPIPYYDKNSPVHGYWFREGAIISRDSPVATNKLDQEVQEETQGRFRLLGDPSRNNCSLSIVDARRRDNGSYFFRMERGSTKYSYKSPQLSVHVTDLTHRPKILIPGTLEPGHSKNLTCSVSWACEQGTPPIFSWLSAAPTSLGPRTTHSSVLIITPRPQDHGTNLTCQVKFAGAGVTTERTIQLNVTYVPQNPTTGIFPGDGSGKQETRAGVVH
Experiment: SPR (Biacore T200), 37 C, scFv-Fc, 0 uM MTX
Output spec: scalar in s⁻¹, unitless text.

Please review the entries below; each comes with its answer.
P03_G12 scFv-Fc fusion (scFv, V domains shown, Tested as scFv-Fc fusion) VH: QVQLVESGGGLVQAGGSLRLSCAASRRSSRSWAMHWVRQAPGKGLEWVAVISYDGRLKYYADSVKGRFTISRDNAEYLVYLQMNSLRAEDTAVYYCAADPTEGWSYLDYWGQGTLVTVSS VL: DIQMTQSPSSLSASVGDRVTITCRASQGISSYLNWYQQKPGKAPKLLIYGASRLQSGVPSRFSGSGSGTDFTLTISSLQPEDFATYYCQQGYSSGTFGQGTKVEIK :: 0.0094
P02_D08 scFv-Fc fusion (scFv, V domains shown, Tested as scFv-Fc fusion) VH: QVQLVESGGGLVQAGGSLRLSCAASRRSSRSWAMHWVRQAPGKGLEWVAVISYDGRLKYYADSVKGRFTISRDNAEYLVYLQMNSLRAEDTAVYYCAAERGDGLDGNVGLDIWGQGTLVTVSS VL: DIQMTQSPSSLSASVGDRVTITCRASQSISKYLNWYQQKPGKAPKLLIYGASTLQSGVPSRFSGSGSGTDFTLTISSLQPEDFATYYCQQSYSSGTFGQGTKVEIK :: 0.0061

Which koff reading was recorded for the binder P07_C04 scFv-Fc fusion (scFv, V domains shown, Tested as scFv-Fc fusion) VH: QVQLVESGGGLVQAGGSLRLSCAASRRSSRSWAMHWVRQAPGKGLEWVAVISYDGRLKYYADSVKGRFTISRDNAEYLVYLQMNSLRAEDTAVYYCAAEPDGEGTNGGLDIWGQGTLVTVSS VL: DIQMTQSPSSLSASVGDRVTITCRASQNISRYLNWYQQKPGKAPKLLIYSASSLQTGVPSRFSGSGSGTDFTLTISSLQPEDFATYYCQQSYSSGAFGQGTKVEIK ? 0.0029

Look up koff for this binder: P02_D09 scFv-Fc fusion (scFv, V domains shown, Tested as scFv-Fc fusion) VH: QVQLVESGGGLVQAGGSLRLSCAASRRSSRSWAMHWVRQAPGKGLEWVAVISYDGRLKYYADSVKGRFTISRDNAEYLVYLQMNSLRAEDTAVYYCAAEEGDGGFFDYWGQGTLVTVSS VL: QSVLTQPPSASGTPGQRVTISCSGSSSNIGSNYVNWYQQLPGTAPKLLIYRNNERPSGVPDRFSGSKSGTSASLAISGLRSEDEADYYCAAWDGSLSGRGVFGTGTKLTVL 0.018

Form field: reported koff of P02_E11 scFv-Fc fusion (scFv, V domains shown, Tested as scFv-Fc fusion) VH: QVQLVESGGGLVQAGGSLRLSCAASRRSSRSWAMHWVRQAPGKGLEWVAVISYDGRLKYYADSVKGRFTISRDNAEYLVYLQMNSLRAEDTAVYYCAAEASTDNGLDYWGQGTLVTVSS VL: DIQMTQSPSSLSASVGDRVTITCRASQTISRHLNWYQQKPGKAPKLLIYSASSLASGVPSRFSGSGSGTDFTLTISSLQPEDFATYYCQQSHSAGTFGQGTKVEIK 0.0038

Data origin: patent US20230192839A1
